Measured pIC50 by item
Target: JAK1 (Homo sapiens)
Construct: 5 μl of catalytic domain recombinant Kinase enzyme+Tyr peptide substrate (Invitrogen, CA)
Sequence (P23458 875-1153 limits assumed): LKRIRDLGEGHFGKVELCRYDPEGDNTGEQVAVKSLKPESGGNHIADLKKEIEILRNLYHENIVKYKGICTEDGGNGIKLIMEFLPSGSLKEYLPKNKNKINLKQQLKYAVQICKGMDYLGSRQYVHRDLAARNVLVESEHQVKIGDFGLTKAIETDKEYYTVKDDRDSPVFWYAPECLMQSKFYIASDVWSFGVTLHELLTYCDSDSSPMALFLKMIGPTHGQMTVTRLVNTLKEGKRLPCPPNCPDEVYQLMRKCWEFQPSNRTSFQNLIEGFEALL
Assay: Z'-LYTE kinase assay JAK1
pIC50: −log10 of the molar value.
quantity.measured: pIC50

[[record]]
compound = "NC(=O)c1cc(F)c(Nc2cccc(-n3nccn3)c2)nc1NCc1ccccc1 [Example 23]"
quantity_measured = "pIC50"
result = "< 6.00"

[[record]]
compound = "CCC(=O)N1CCC(c2ccc(Nc3cc(NCc4ccccc4F)c(C(N)=O)cn3)cc2)CC1 [Example 79]"
quantity_measured = "pIC50"
result = "6.00 to 7.00"

[[record]]
compound = "NC(=O)c1cnc(Nc2cccc(C(=O)N3CCC3)c2)cc1NCc1ccccc1 [Example 45]"
quantity_measured = "pIC50"
result = "6.00 to 7.00"

[[record]]
compound = "COc1ccc(Nc2cc(NCc3cccc(F)n3)c(C(N)=O)cn2)cc1 [Example 315]"
quantity_measured = "pIC50"
result = "6.00 to 7.00"

[[record]]
compound = "CN(C)C(=O)COc1cccc(Nc2cc(NC3(c4ccccc4)CC3)c(C(N)=O)cn2)c1 [Example 365]"
quantity_measured = "pIC50"
result = "< 6.00"

[[record]]
compound = "CC(=O)N1CCC[C@H](CNc2cc(Nc3ccc(C(=O)N(C)C)c(N(C)C)c3)ncc2C(N)=O)C1 [Example 445]"
quantity_measured = "pIC50"
result = "< 6.00"

[[record]]
compound = "NC(=O)c1cnc(Nc2ccc(CC(=O)N3CCOCC3)cc2)cc1NCc1ccccc1 [Example 330]"
quantity_measured = "pIC50"
result = "6.00 to 7.00"

[[record]]
compound = "CN(C(=O)C1CC1)c1ccc(Nc2cc(NCc3cccc4cc[nH]c34)c(C(N)=O)cn2)cc1 [Example 478]"
quantity_measured = "pIC50"
result = "< 6.00"


====

Measured pIC50 by item
Target: JAK2 (Homo sapiens, UniProt O60674)
Construct: 5 μl of catalytic domain recombinant Kinase enzyme+Tyr peptide substrate (Invitrogen, CA)
Sequence (O60674 849-1124 limits assumed): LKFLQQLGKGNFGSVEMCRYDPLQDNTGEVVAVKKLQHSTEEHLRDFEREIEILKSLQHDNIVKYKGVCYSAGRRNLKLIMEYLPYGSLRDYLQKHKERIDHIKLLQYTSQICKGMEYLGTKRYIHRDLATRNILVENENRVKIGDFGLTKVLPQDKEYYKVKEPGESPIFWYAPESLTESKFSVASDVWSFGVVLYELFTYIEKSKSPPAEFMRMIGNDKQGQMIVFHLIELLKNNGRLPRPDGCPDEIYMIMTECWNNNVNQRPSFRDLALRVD
Test: Z'-LYTE kinase assay JAK2
pIC50: −log10 of the molar value.
quantity.measured: pIC50

[[record]]
molecule = "NC(=O)c1cnc(Nc2ccc(C(=O)N3CCOCC3)cc2)cc1NCc1ccccc1 [Example 40]"
assay_system = "JAK2 (Homo sapiens, UniProt O60674)"
result = "6.00 to 7.00"

[[record]]
molecule = "CCC(=O)N1CCC(c2ccc(Nc3cc(N[C@H](C)C(C)C)c(C(N)=O)cn3)cc2)CC1 [Example 189]"
assay_system = "JAK2 (Homo sapiens, UniProt O60674)"
result = "7.00 to 8.00"

[[record]]
molecule = "CN(C)C(=O)c1ccc(Nc2cc(NCc3cncc(F)c3)c(C(N)=O)cn2)cc1 [Example 312]"
assay_system = "JAK2 (Homo sapiens, UniProt O60674)"
result = "6.00 to 7.00"

[[record]]
molecule = "CC(=O)N1CCN(c2ccc(Nc3cc(NC(C)C)c(C(N)=O)cn3)cc2)CC1 [Example 234]"
assay_system = "JAK2 (Homo sapiens, UniProt O60674)"
result = "< 6.00"

[[record]]
molecule = "CS(=O)(=O)N1CCC(Nc2cc(Nc3ccc(C4CCOCC4)cc3)ncc2C(N)=O)CC1 [Example 165]"
assay_system = "JAK2 (Homo sapiens, UniProt O60674)"
result = "< 6.00"

[[record]]
molecule = "CCC(=O)N1CCN(c2ccc(Nc3cc(NCc4cccc(F)c4F)c(C(N)=O)cn3)cc2)CC1 [Example 435]"
assay_system = "JAK2 (Homo sapiens, UniProt O60674)"
result = "7.00 to 8.00"

[[record]]
molecule = "NC(=O)c1cnc(Nc2cccc(OCCN3CCCC3)c2)cc1NCc1ccccc1F [Example 72]"
assay_system = "JAK2 (Homo sapiens, UniProt O60674)"
result = "6.00 to 7.00"

[[record]]
molecule = "CCC(=O)N(C)c1ccc(Nc2cc(NCc3cccc4[nH]ccc34)c(C(N)=O)cn2)cc1 [Example 475]"
assay_system = "JAK2 (Homo sapiens, UniProt O60674)"
result = "7.00 to 8.00"

[[record]]
molecule = "CN(C)S(=O)(=O)N1CC(c2ccc(Nc3cc(NCc4ccccc4)c(C(N)=O)cn3)cc2)C1 [Example 339]"
assay_system = "JAK2 (Homo sapiens, UniProt O60674)"
result = "< 6.00"

[[record]]
molecule = "NC(=O)c1cnc(Nc2cccc(OCC(=O)N3CCOCC3)c2)cc1NC1(c2ccccc2)CC1 [Example 134]"
assay_system = "JAK2 (Homo sapiens, UniProt O60674)"
result = "< 6.00"

[[record]]
molecule = "CCC(=O)N1CCC(c2ccc(Nc3cc(NCc4cc(F)cc(F)c4)c(C(N)=O)cn3)cc2)CC1 [Example 195]"
assay_system = "JAK2 (Homo sapiens, UniProt O60674)"
result = "7.00 to 8.00"

[[record]]
molecule = "CS(=O)(=O)c1ccc(Nc2cc(NCc3cccc(-c4ccncc4)c3)c(C(N)=O)cn2)cc1 [Example 413]"
assay_system = "JAK2 (Homo sapiens, UniProt O60674)"
result = "< 6.00"

[[record]]
molecule = "CCC(=O)N1CCC(c2ccc(Nc3cc(N[C@H](C)c4ccccc4)c(C(N)=O)cn3)cc2)CC1 [Example 199]"
assay_system = "JAK2 (Homo sapiens, UniProt O60674)"
result = "6.00 to 7.00"

[[record]]
molecule = "CS(=O)(=O)Cc1ccc(Nc2cc(NCc3ccccc3)c(C(N)=O)cn2)cc1 [Example 347]"
assay_system = "JAK2 (Homo sapiens, UniProt O60674)"
result = "6.00 to 7.00"

[[record]]
molecule = "CCC(=O)N1CCC(c2ccc(Nc3cc(NCc4cccc5[nH]ncc45)c(C(N)=O)cn3)cc2)CC1 [Example 210]"
assay_system = "JAK2 (Homo sapiens, UniProt O60674)"
result = "7.00 to 8.00"

[[record]]
molecule = "CN(C)C(=O)C1CCN(c2ccc(Nc3cc(NCc4cccc5ccsc45)c(C(N)=O)cn3)cc2)CC1 [Example 350]"
assay_system = "JAK2 (Homo sapiens, UniProt O60674)"
result = "7.00 to 8.00"


====

Molecular target: JAK3 (Homo sapiens)
Construct: 5 μl of catalytic domain recombinant Kinase enzyme+Tyr peptide substrate (Invitrogen, CA)
Sequence (P52333 822-1111 limits assumed): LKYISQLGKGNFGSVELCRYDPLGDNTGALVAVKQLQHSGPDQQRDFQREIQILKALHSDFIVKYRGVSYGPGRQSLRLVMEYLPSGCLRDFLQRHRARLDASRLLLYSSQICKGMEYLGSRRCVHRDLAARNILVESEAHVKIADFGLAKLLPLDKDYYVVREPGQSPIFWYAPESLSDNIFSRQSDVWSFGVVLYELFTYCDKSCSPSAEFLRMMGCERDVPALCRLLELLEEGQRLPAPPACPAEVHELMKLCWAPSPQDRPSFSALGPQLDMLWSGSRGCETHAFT
Assay: Z'-LYTE kinase assay JAK3
pIC50: −log10 of the molar value.
quantity.measured: pIC50

[[record]]
smiles_structure = "Cn1cc(CNc2cc(Nc3ccc(C4CCOCC4)cc3)ncc2C(N)=O)cn1"
quantity_measured = "pIC50"
result = "6.00 to 7.00"

[[record]]
smiles_structure = "NC(=O)c1cnc(Nc2cccc(C3CCN(C4CCCC4)CC3)c2)cc1NCc1ccccc1F"
quantity_measured = "pIC50"
result = "8.00 to 9.00"

[[record]]
smiles_structure = "CCS(=O)(=O)N1CCC(CNc2cc(Nc3ccc(C4CCOCC4)cc3)ncc2C(N)=O)CC1"
quantity_measured = "pIC50"
result = "< 6.00"

[[record]]
smiles_structure = "CNC(=O)Cc1ccc(Nc2cc(NCc3ccccc3)c(C(N)=O)cn2)cc1"
quantity_measured = "pIC50"
result = "7.00 to 8.00"

[[record]]
smiles_structure = "COc1ccc(Nc2cc(NC[C@H]3CCCNC3)c(C(N)=O)cn2)cc1"
quantity_measured = "pIC50"
result = "6.00 to 7.00"

[[record]]
smiles_structure = "NC(=O)c1cc(F)c(Nc2ccc(OCCN3CCCC3)cc2)nc1NC1CCCC1"
quantity_measured = "pIC50"
result = "< 6.00"

[[record]]
smiles_structure = "NC(=O)c1cnc(Nc2ccc(C3CCOCC3)cc2)cc1NCC1(O)CCCC1"
quantity_measured = "pIC50"
result = "7.00 to 8.00"

[[record]]
smiles_structure = "COC(=O)N1CC(c2ccc(Nc3cc(NCc4ccccc4)c(C(N)=O)cn3)cc2)C1"
quantity_measured = "pIC50"
result = "7.00 to 8.00"

[[record]]
smiles_structure = "CC(=O)Nc1ccc(Nc2cc(NCc3cccc(F)n3)c(C(N)=O)cn2)cc1"
quantity_measured = "pIC50"
result = "7.00 to 8.00"

[[record]]
smiles_structure = "CN(C)S(=O)(=O)Cc1ccc(Nc2cc(NCc3cccc(-c4ccncc4)c3)c(C(N)=O)cn2)cc1"
quantity_measured = "pIC50"
result = "8.00 to 9.00"

[[record]]
smiles_structure = "CN(C)C(=O)N1CCC(c2ccc(Nc3cc(NCc4ccccc4F)c(C(N)=O)cn3)cc2)CC1"
quantity_measured = "pIC50"
result = "7.00 to 8.00"

[[record]]
smiles_structure = "Cc1cc(Nc2cc(NCc3cccc4[nH]ccc34)c(C(N)=O)cn2)ccc1C(=O)N1CCCC1"
quantity_measured = "pIC50"
result = "> 9.00"

[[record]]
smiles_structure = "CNC(=O)[C@@H]1CCCN(c2ccc(Nc3cc(NCc4ccccc4)c(C(N)=O)cn3)cc2)C1"
quantity_measured = "pIC50"
result = "8.00 to 9.00"

[[record]]
smiles_structure = "NC(=O)c1cnc(Nc2ccc(N3CCOCC3)cc2)cc1NCc1cccc(F)c1"
quantity_measured = "pIC50"
result = "8.00 to 9.00"

[[record]]
smiles_structure = "CCC(=O)N1CCC(c2ccc(Nc3cc(NC4CCOCC4)c(C(N)=O)cn3)cc2)CC1"
quantity_measured = "pIC50"
result = "6.00 to 7.00"

[[record]]
smiles_structure = "COc1ccc(Nc2cc(N[C@@H]3CCCN(C(C)=O)C3)c(C(N)=O)cn2)cc1"
quantity_measured = "pIC50"
result = "< 6.00"

[[record]]
smiles_structure = "CN(C)C(=O)c1cccc(Nc2cc(NCC3CCCC3)c(C(N)=O)cn2)c1"
quantity_measured = "pIC50"
result = "7.00 to 8.00"

